- TARGET_ENTITY: T1, PDZRN3_1, Q9UPQ7
- T1 sequence (Q9UPQ7 244-349, limits assumed, looked up): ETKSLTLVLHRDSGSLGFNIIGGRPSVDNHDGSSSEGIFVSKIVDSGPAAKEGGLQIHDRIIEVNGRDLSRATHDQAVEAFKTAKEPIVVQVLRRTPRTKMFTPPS
- EXPERIMENT_SUMMARY: holdup assay
- Set-up: key: below the threshold = too weak to quantify, mostly under pKd 3.1 to 4
- PARTICULARS: plain residues with an end cap or a label only (N-terminal biotin on a linker: ado-ado)
RECORDED_ENDPOINT: pKd

In [3]: df
Out[3]:
                        binder  recorded_endpoint  numeric_value
0   DPAESMESLV [PTPRG, P23470]                pKd           3.96
1  TGLWKHETTV [ADGRA3, Q8IWK6]                pKd           4.25
